These entries and their values trace back to patent US9428503B2.

molecular target: ATM kinase (Homo sapiens (Human)); assay: Assay a) ATM cellular potency assay (pATM Ser1981 in X-ray irradiated HT29 cells); conditions: HT29 cells, pATM Ser1981 after X-ray irradiation; geometric mean where repeated; read-out: Assay a) ATM Cell IC50
Sequence (Q13315 whole entry): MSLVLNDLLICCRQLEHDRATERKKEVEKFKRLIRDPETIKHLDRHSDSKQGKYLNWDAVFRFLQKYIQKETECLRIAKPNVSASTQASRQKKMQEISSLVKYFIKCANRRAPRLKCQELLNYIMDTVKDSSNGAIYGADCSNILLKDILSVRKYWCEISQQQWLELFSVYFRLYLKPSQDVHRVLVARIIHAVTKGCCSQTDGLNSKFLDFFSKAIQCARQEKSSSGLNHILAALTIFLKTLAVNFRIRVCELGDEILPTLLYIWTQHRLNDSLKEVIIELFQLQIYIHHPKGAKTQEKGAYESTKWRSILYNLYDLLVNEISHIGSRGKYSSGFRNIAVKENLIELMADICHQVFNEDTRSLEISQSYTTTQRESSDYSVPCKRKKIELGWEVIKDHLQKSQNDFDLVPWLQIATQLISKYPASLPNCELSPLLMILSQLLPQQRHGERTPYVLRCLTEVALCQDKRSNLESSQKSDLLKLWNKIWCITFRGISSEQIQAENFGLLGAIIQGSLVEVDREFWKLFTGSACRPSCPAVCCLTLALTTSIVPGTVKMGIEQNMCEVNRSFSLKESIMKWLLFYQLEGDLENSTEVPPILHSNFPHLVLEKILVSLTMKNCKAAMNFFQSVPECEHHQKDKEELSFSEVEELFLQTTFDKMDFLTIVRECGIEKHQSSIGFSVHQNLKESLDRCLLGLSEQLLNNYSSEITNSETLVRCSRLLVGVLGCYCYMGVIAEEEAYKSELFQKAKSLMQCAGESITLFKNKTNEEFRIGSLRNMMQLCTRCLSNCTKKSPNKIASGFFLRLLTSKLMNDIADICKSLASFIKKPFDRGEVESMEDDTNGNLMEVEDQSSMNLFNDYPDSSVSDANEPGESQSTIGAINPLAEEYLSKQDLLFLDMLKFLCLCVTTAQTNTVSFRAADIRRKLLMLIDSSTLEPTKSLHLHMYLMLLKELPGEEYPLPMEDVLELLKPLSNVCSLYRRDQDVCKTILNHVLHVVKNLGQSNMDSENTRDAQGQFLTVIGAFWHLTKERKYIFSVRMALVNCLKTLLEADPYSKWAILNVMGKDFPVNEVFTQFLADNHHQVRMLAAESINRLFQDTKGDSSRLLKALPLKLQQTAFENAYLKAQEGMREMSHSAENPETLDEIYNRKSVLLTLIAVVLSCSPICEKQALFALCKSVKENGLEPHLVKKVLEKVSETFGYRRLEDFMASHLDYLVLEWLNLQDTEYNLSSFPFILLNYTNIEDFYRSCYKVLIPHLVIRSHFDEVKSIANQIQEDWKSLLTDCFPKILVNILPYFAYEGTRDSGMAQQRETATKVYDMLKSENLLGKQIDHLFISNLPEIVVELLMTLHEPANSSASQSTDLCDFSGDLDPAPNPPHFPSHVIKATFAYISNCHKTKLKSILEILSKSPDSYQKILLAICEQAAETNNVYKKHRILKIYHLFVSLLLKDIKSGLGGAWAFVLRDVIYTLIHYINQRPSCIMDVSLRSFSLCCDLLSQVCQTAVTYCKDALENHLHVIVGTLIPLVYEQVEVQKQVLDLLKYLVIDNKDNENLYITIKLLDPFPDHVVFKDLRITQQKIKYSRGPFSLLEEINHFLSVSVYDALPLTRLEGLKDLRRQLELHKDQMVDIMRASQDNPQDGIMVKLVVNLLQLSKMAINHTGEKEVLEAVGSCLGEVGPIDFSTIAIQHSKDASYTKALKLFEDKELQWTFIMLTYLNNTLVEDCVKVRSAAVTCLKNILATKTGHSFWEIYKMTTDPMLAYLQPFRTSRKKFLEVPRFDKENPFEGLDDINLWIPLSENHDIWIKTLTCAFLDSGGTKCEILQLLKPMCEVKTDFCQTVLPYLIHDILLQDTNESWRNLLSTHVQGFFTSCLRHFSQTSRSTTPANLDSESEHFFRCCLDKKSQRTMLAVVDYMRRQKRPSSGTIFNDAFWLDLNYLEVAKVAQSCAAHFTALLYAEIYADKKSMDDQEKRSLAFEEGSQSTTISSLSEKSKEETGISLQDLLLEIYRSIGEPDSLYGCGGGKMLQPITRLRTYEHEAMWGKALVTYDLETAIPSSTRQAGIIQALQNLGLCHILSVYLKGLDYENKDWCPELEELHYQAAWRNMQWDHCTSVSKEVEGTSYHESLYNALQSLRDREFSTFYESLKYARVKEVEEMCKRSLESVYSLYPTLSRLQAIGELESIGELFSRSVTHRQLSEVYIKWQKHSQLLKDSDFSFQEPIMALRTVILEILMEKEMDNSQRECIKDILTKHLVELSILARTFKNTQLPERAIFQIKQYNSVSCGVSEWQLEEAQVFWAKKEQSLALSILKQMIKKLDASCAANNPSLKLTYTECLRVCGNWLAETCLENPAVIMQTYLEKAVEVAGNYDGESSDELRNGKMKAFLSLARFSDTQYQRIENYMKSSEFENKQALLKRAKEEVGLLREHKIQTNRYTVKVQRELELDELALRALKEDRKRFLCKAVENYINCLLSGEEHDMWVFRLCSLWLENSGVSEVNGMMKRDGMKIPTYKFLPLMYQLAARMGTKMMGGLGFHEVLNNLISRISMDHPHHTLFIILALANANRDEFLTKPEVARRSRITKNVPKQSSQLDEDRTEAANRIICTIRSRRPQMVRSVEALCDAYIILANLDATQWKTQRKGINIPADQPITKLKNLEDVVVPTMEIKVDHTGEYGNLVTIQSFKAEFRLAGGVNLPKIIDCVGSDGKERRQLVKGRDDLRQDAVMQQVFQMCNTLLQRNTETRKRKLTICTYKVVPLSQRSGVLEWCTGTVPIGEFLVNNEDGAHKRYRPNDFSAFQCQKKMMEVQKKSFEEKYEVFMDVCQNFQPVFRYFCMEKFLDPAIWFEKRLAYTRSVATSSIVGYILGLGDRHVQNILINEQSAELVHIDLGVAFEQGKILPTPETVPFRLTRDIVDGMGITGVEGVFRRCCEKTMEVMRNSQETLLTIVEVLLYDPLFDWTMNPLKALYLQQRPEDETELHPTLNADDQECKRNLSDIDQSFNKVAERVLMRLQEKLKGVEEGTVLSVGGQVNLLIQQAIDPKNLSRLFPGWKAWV
pIC50: −log10 of the molar value. Where a name gives a salt, the structure may show the parent alone.
# pIC50 per record follows

compound	pIC50
CNCCCOc1ccc(-c2ccc3ncc4c(c3c2)n(C2CCOCC2)c(=O)n4C)cn1	9.25
Cn1c(=O)n(C2COC2)c2c3cc(-c4ccc(OCCCN5CCCCC5)nc4)ccc3ncc21 [Example 56, trifluoroacetic acid salt]	8.52
Cn1c(=O)n([C@H]2CCCOC2)c2c3cc(-c4ccc(OCCCN5CCCCC5)nc4)ccc3ncc21	8.96
CN(C)CCCOc1ccc(-c2ccc3ncc4c(c3c2)n([C@@H]2CCOC2)c(=O)n4C)c(F)n1	8.84
CO[C@H]1CC[C@H](n2c(=O)n(C)c3cnc4ccc(-c5ccc(OCCCN(C)C)nc5F)cc4c32)C1	9.49
CN(C)CCCOc1ccc(-c2cc3c(cc2F)ncc2c3n(C3COC3)c(=O)n2C)cn1	8.42
CO[C@H]1C[C@@H](n2c(=O)n(C)c3cnc4ccc(-c5ccc(OCCCN(C)C)nc5)cc4c32)C1	9.60
CO[C@@H]1CC[C@@H](n2c(=O)n(C)c3cnc4ccc(-c5ccc(OCCCN(C)C)nc5)cc4c32)C1	9.50
CO[C@H]1CC[C@H](n2c(=O)n(C)c3cnc4ccc(-c5ccc(OCCCN(C)C)nc5)cc4c32)C1	9.82
Cn1c(=O)n(C2CCCOC2)c2c3cc(-c4ccc(OCCCN5CCC5)nc4)ccc3ncc21 (stereo in doubt)	9.12
CO[C@H]1C[C@@H](n2c(=O)n(C)c3cnc4cc(F)c(-c5ccc(OCCCN(C)C)nc5)cc4c32)C1	8.98
Cn1c(=O)n(C2CCC2)c2c3cc(-c4ccc(OCCCN5CCCC5)nc4)ccc3ncc21	9.51
Cn1c(=O)n([C@@H]2CCCOC2)c2c3cc(-c4ccc(OCCCN5CCCC5)nc4)c(F)cc3ncc21	9.16
CN(C)CCCOc1ccc(-c2ccc3ncc4[nH]c(=O)n(C5CCOCC5)c4c3c2)cn1	8.49
CNCCCOc1ccc(-c2ccc3ncc4c(c3c2)n([C@H]2CCCOC2)c(=O)n4C)cn1	9.26
Cn1c(=O)n([C@H]2C[C@@H](O)C2)c2c3cc(-c4ccc(OCCCN5CCC5)nc4)ccc3ncc21	8.98
CN(C)CCCOc1ccc(-c2ccc3ncc4c(c3c2)n([C@@H]2CCCOC2)c(=O)n4C)c(F)n1	9.26
CN(C)CCCOc1ccc(-c2ccc3ncc4c(c3c2)n(C2CCC2)c(=O)n4C)c(F)n1	9.14
O=c1[nH]c2cnc3ccc(-c4ccc(OCCCN5CCCCC5)nc4)cc3c2n1C1CCOCC1	8.52
Cn1c(=O)n([C@H]2CCCOC2)c2c3cc(-c4ccc(OCCCN5CCCC5)nc4F)ccc3ncc21	9.26
CN(C)CCCOc1ccc(-c2ccc3ncc4c(c3c2)n(C2CCOCC2)c(=O)n4C)c(F)n1	9.52
CN(C)CCCOc1ccc(-c2ccc3ncc4c(c3c2)n([C@H]2CCOC2)c(=O)n4C)c(F)n1	8.87
CN(C)CCCOc1ccc(-c2cc3c(cc2F)ncc2c3n(C3(C)CCOCC3)c(=O)n2C)cn1	8.69
CO[C@H]1CC[C@H](n2c(=O)n(C)c3cnc4cc(F)c(-c5ccc(OCCCN(C)C)nc5)cc4c32)C1	9.51
